Below, each entry is listed with its recorded LC retention time.
method: RP, Waters XBridge C18, 50 × 2.1 mm, 3.5 µm, 30 °C, 0.2 mL/min, estimated dead time 0.55 min; A: water + 0.1% formic acid, pH 3; B: methanol + 0.1% formic acid, pH 3; gradient (min/%B) 0/10 4/50 17/95 25/95 25.1/10 30/10
experimental setup: stereoisomer not certain
// note: answer is a bare numeric in min

compound: c1ccc2scnc2c1
LC retention time / min: 6.6

Request: Look up LC retention time: `CN=CNc1ccc(C)cc1C`
Response: 4.5

Request: Look up LC retention time: CCC(CC)OC1C=C(C(=O)O)CC(N)C1NC(C)=O (centres undefined) [Oseltamivir carboxylate]
Response: 5.1

Request: Look up LC retention time: `Clc1cccc(N2CCNCC2)c1`
Response: 5.2

Request: Look up LC retention time: `CC(C)N(C(=O)COc1nnc(C(F)(F)F)s1)c1ccc(F)cc1`
Response: 11.7

Request: Look up LC retention time: CN(C(=O)CO)c1c(I)c(C(=O)NCC(O)CO)c(I)c(C(=O)NCC(O)CO)c1I (centres undefined)
Response: 1.6

Request: Look up LC retention time: O=P1(N(CCCl)CCCl)NCCCO1 (centres undefined) [Cyclophosphamide]
Response: 6.3

Request: Look up LC retention time: `COc1nc(NC(=O)NS(=O)(=O)c2ccccc2C(F)(F)F)nc(C(F)(F)F)n1`
Response: 10.8

Request: Look up LC retention time: CNCCC(Oc1ccccc1C)c1ccccc1 (centres undefined)
Response: 8

###

Below, each entry is listed with its recorded LC retention time.
method: RP, Waters XBridge C18, 50 × 2.1 mm, 3.5 µm, 30 °C, 0.2 mL/min, estimated dead time 0.55 min; A: water + 0.1% formic acid, pH 3; B: methanol + 0.1% formic acid, pH 3; gradient (min/%B) 0/10 4/50 17/95 25/95 25.1/10 30/10
experimental setup: stereoisomer not certain
// note: answer is a bare numeric in min

Below, each entry is followed by its recorded LC retention time result.
molecule: CC(C)NCC(O)COc1ccc(CC(=O)O)cc1 (centres undefined) [Atenolol acid]
measurement unit: min
LC retention time: 3.8

molecule: Cc1cc(Cl)ccc1OCC(=O)O [MCPA]
measurement unit: min
LC retention time: 9.5

molecule: O=P1(NCCCl)OCCCN1CCCl (centres undefined) [Ifosfamide]
measurement unit: min
LC retention time: 6.3

molecule: COCC(=O)Nc1c(I)c(C(=O)NCC(O)CO)c(I)c(C(=O)N(C)CC(O)CO)c1I (centres undefined) [Iopromide]
measurement unit: min
LC retention time: 2.7

molecule: O=P(O)(OCCC(F)(F)C(F)(F)C(F)(F)C(F)(F)C(F)(F)C(F)(F)C(F)(F)C(F)(F)F)OCCC(F)(F)C(F)(F)C(F)(F)C(F)(F)C(F)(F)C(F)(F)C(F)(F)C(F)(F)F [Bisperfluorodecyl phosphate]
measurement unit: min
LC retention time: 20.4

Please find the next molecule below.
Request: Look up LC retention time: O=c1ccn(C2OC(CO)C(O)C2(F)F)c(=O)[nH]1 (centres undefined) [2',2'-Difluoro-2'-deoxyuridine]
Response: 1.7

###

method: RP, Waters XBridge C18, 50 × 2.1 mm, 3.5 µm, 30 °C, 0.2 mL/min, estimated dead time 0.55 min; A: water + 0.1% formic acid, pH 3; B: methanol + 0.1% formic acid, pH 3; gradient (min/%B) 0/10 4/50 17/95 25/95 25.1/10 30/10
experimental setup: stereoisomer not certain
recorded metric: log10 LC retention time (log10 of the value in min)
Response schema: value (number) is log10 of LC retention time in units of min.

Request: Look up log10 LC retention time: CON(C)C(=O)Nc1ccc(Cl)c(Cl)c1 [Linuron]
Response: 1.00

Request: Look up log10 LC retention time: CNC(C)C(O)c1ccccc1 (centres undefined) [Ephedrine]
Response: 0.46

Request: Look up log10 LC retention time: CCS(=O)(=O)c1cccnc1S(=O)(=O)NC(=O)Nc1nc(OC)cc(OC)n1 [Rimsulfuron]
Response: 0.90

Request: Look up log10 LC retention time: CC(=O)Nc1ccc(S(=O)(=O)Nc2cc(C)on2)cc1 [N4-Acetylsulfamethoxazole]
Response: 0.74

Request: Look up log10 LC retention time: O=c1[nH]cc(F)c(=O)[nH]1 [5-Fluorouracil]
Response: 0.00

Request: Look up log10 LC retention time: O=S(=O)(O)c1ccc2ccccc2c1 [2-Naphthalenesulfonic acid]
Response: 0.72

Request: Look up log10 LC retention time: CN(CC(O)CO)C(=O)c1c(I)c(NC(=O)C(CO)CO)c(I)c(C(=O)N(C)CC(O)CO)c1I (centres undefined) [Iobitridol]
Response: 0.20

Request: Look up log10 LC retention time: Oc1ccc(Cl)cc1 [4-Chlorophenol]
Response: 0.86

Request: Look up log10 LC retention time: Nc1cnn(-c2ccccc2)c(=O)c1Cl [Chloridazon]
Response: 0.72

Request: Look up log10 LC retention time: CN(C)C(=O)Nc1ccc(Cl)cc1 [Monuron]
Response: 0.83

Request: Look up log10 LC retention time: O=[N+]([O-])c1cc(C(F)(F)F)c(Cl)c([N+](=O)[O-])c1Nc1ncc(C(F)(F)F)cc1Cl [Fluazinam]
Response: 1.20

Request: Look up log10 LC retention time: CCCCC(C#N)(Cn1cncn1)c1ccc(Cl)cc1 (centres undefined) [Myclobutanil]
Response: 1.05

Request: Look up log10 LC retention time: CC(=O)N(CC(O)CO)c1c(I)c(C(=O)NCC(O)CO)c(I)c(C(=O)NCC(O)CO)c1I (centres undefined) [Iohexol]
Response: 0.20
